Test: Pharmacokinetics of JHG components in control rats after intragastric administration of JHGs (plasma, Orbitrap Fusion MS)
Format: in vivo, Sprague Dawley (SD) rats
Settings: male, Sprague Dawley, rat, plasma, po, 5.7 g/kg/day, JHGs low dose 5.70 g/kg/d
Assign class by AUC(0-t): not lower than 20 ng·h/mL means fulfilled; lower than 20 ng·h/mL means not fulfilled.

Please review the following examples before continuing.
[
  {
    "Molecule": "CC1CCC2N(C1)CC1C3CC4C(CC(O)C5CC(O)CCC54C)C3CCC1C2(C)O (stereo not drawn)",
    "Discrete Label": "not fulfilled"
  },
  {
    "Molecule": "CC1=C2CC3C(CC(=O)C4CC(O)CCC43C)C2CCC12OC1CC(C)CNC1C2C (stereo not drawn)",
    "Discrete Label": "not fulfilled"
  }
]

Exercise: Is AUC(0-t) for `COc1ccc(-c2cc(=O)c3c(OC)c(OC)c(OC)c(OC)c3o2)cc1OC` at or above 20 ng·h/mL?
Key: not fulfilled

Exercise: Is AUC(0-t) for `COc1ccc(C(C)=O)c(O)c1` at or above 20 ng·h/mL?
Key: fulfilled

Exercise: Is AUC(0-t) for C[C@@H]1O[C@@H](O[C@@H]2[C@@H](O)[C@H](OCCc3ccc(O)c(O)c3)O[C@H](COC(=O)/C=C/c3ccc(O)c(O)c3)[C@H]2O)[C@H](O)[C@H](O)[C@H]1O [Isoacteoside] at or above 20 ng·h/mL?
Key: fulfilled

Exercise: Is AUC(0-t) for O=c1cc(-c2ccc(O)c(O)c2)oc2cc(O[C@@H]3O[C@H](CO)[C@@H](O)[C@H](O)[C@H]3O)cc(O)c12 [Cynaroside] at or above 20 ng·h/mL?
Key: fulfilled

Exercise: Is AUC(0-t) for CC1CCC2N(C1)CC1C3CC4C(CC(=O)C5CC(O)CCC54C)C3CCC1C2(C)O (stereo not drawn) at or above 20 ng·h/mL?
Key: fulfilled

Exercise: Is AUC(0-t) for `COc1cc(O)c2c(c1)oc(=O)c1c3cc(O)c(O)cc3oc21` at or above 20 ng·h/mL?
Key: fulfilled

* * *

Assay: Pharmacokinetics of JHG components in pulmonary fibrosis (PF) model rats after intragastric administration of JHGs (plasma, Orbitrap Fusion MS)
Type: in vivo, Sprague Dawley (SD) rats
Settings: male, Sprague-Dawley, rat, plasma, po; PF model rats, after administration of JHGs; read-out: Tmax of all dosages
Readout Label: Tmax

Exercise: Field request: Tmax | item: `C[C@@H]1O[C@@H](OC[C@H]2O[C@@H](Oc3c(-c4ccc(O)c(O)c4)oc4cc(O)cc(O)c4c3=O)[C@H](O)[C@@H](O)[C@@H]2O)[C@H](O)[C@H](O)[C@H]1O`
Key: ≤ 2 h

* * *

Test: Pharmacokinetics of JHG components in control rats after intragastric administration of JHGs (plasma, Orbitrap Fusion MS)
Type: in vivo, Sprague Dawley (SD) rats
Conditions: male, Sprague Dawley, rat, plasma, po, 22.81 g/kg/day, intragastric JHGs, high dose 22.81 g/kg/d, n=6 (3rd of 3 stacked values)
Readout Label: Cmax

[
  {
    "Molecule": "CC1CCC2N(C1)CC1C3CC4C(CC(=O)C5CC(O)CCC54C)C3CCC1C2(C)O (stereo not drawn)",
    "Cmax": "5.31 ng/mL"
  },
  {
    "Molecule": "O=c1cc(-c2ccc(O)c(O)c2)oc2cc(O[C@@H]3O[C@H](CO)[C@@H](O)[C@H](O)[C@H]3O)cc(O)c12 [Cynaroside]",
    "Cmax": "79.5 ng/mL"
  },
  {
    "Molecule": "COc1cc(O)c2c(c1)oc(=O)c1c3cc(O)c(O)cc3oc21",
    "Cmax": "35.4 ng/mL"
  }
]

Exercise: Field request: Cmax | item: O=c1cc(-c2ccc(O)cc2)oc2cc(OC3OC(CO)C(O)C(O)C3O)cc(O)c12 (stereo not drawn) [Apigenin-7-glucoside]
Key: 3.88 ng/mL

Exercise: Field request: Cmax | item: CC1=C2CC3C(CC(=O)C4CC(O)CCC43C)C2CCC12OC1CC(C)CNC1C2C (stereo not drawn)
Key: 2.35 ng/mL

Exercise: Field request: Cmax | item: `COc1ccc(C(C)=O)c(O)c1`
Key: 15.7 ng/mL

Exercise: Field request: Cmax | item: C[C@@H]1O[C@@H](O[C@@H]2[C@@H](O)[C@H](OCCc3ccc(O)c(O)c3)O[C@H](COC(=O)/C=C/c3ccc(O)c(O)c3)[C@H]2O)[C@H](O)[C@H](O)[C@H]1O [Isoacteoside]
Key: 18.4 ng/mL

Exercise: Field request: Cmax | item: CC1CCC2N(C1)CC1C3CC4C(CC(O)C5CC(O)CCC54C)C3CCC1C2(C)O (stereo not drawn)
Key: 2.53 ng/mL

Exercise: Field request: Cmax | item: `COc1ccc(-c2cc(=O)c3c(OC)c(OC)c(OC)c(OC)c3o2)cc1OC`
Key: 4.46 ng/mL

* * *

Assay: Pharmacokinetics of JHG components in pulmonary fibrosis (PF) model rats after intragastric administration of JHGs (plasma, Orbitrap Fusion MS)
Type: in vivo, Sprague Dawley (SD) rats
Details: male, Sprague Dawley, rat, plasma, po, 22.81 g/kg/day; PF model rats, JHGs high dose 22.81 g/kg/d
Readout Label: half-life (min)
Number only, in min; omit the unit.

Field: example entries. Status: answers known.
[
  {
    "Compound": "CC1=C2CC3C(CC(=O)C4CC(O)CCC43C)C2CCC12OC1CC(C)CNC1C2C (stereo not drawn)",
    "Unit Label": "min",
    "half-life": 358
  },
  {
    "Compound": "COc1ccc(C(C)=O)c(O)c1",
    "Unit Label": "min",
    "half-life": 2180
  }
]

Here is the next item to consider.
Exercise: Field request: half-life | item: `COc1ccc(-c2cc(=O)c3c(OC)c(OC)c(OC)c(OC)c3o2)cc1OC`
Key: 575

* * *

Experiment: Pharmacokinetics of JHG components in control rats after intragastric administration of JHGs (plasma, Orbitrap Fusion MS)
Format: in vivo, Sprague Dawley (SD) rats
Details: JHGs high dose 22.81 g/kg/d
The reader will find reported log10(Vss) values listed item by item below.
Heads up: the numbers are on a log10 scale; they represent Vss in L.

Field: example entries. Status: answers known.
[
  {
    "Molecule": "COc1cc(O)c2c(c1)oc(=O)c1c3cc(O)c(O)cc3oc21",
    "log10(Vss)": -1.15
  },
  {
    "Molecule": "O=c1cc(-c2ccc(O)cc2)oc2cc(OC3OC(CO)C(O)C(O)C3O)cc(O)c12 (stereo not drawn) [Apigenin-7-glucoside]",
    "log10(Vss)": 0.82
  },
  {
    "Molecule": "CC1=C2CC3C(CC(=O)C4CC(O)CCC43C)C2CCC12OC1CC(C)CNC1C2C (stereo not drawn)",
    "log10(Vss)": 0.60
  },
  {
    "Molecule": "CC1CCC2N(C1)CC1C3CC4C(CC(O)C5CC(O)CCC54C)C3CCC1C2(C)O (stereo not drawn)",
    "log10(Vss)": 1.78
  },
  {
    "Molecule": "O=c1cc(-c2ccc(O)c(O)c2)oc2cc(O[C@@H]3O[C@H](CO)[C@@H](O)[C@H](O)[C@H]3O)cc(O)c12 [Cynaroside]",
    "log10(Vss)": 0.13
  }
]

Exercise: Field request: log10(Vss) | item: CC1CCC2N(C1)CC1C3CC4C(CC(=O)C5CC(O)CCC54C)C3CCC1C2(C)O (stereo not drawn)
Key: 1.83

Exercise: Field request: log10(Vss) | item: `COc1ccc(-c2cc(=O)c3c(OC)c(OC)c(OC)c(OC)c3o2)cc1OC`
Key: 2.95

Exercise: Field request: log10(Vss) | item: C[C@@H]1O[C@@H](O[C@@H]2[C@@H](O)[C@H](OCCc3ccc(O)c(O)c3)O[C@H](COC(=O)/C=C/c3ccc(O)c(O)c3)[C@H]2O)[C@H](O)[C@H](O)[C@H]1O [Isoacteoside]
Key: 0.97

Exercise: Field request: log10(Vss) | item: `COc1ccc(C(C)=O)c(O)c1`
Key: 3.26

* * *

Test: Pharmacokinetics of JHG components in control rats after intragastric administration of JHGs (plasma, Orbitrap Fusion MS)
Assay type: in vivo, Sprague Dawley (SD) rats
Conditions: male, Sprague Dawley, rat, plasma, po, 22.81 g/kg/day, JHGs high dose 22.81 g/kg/d
Readout Label: AUC(0-t)

Exercise: Field request: AUC(0-t) | item: CC1CCC2N(C1)CC1C3CC4C(CC(O)C5CC(O)CCC54C)C3CCC1C2(C)O (stereo not drawn)
Key: 26.6 ng·h/mL

Exercise: Field request: AUC(0-t) | item: O=c1cc(-c2ccc(O)cc2)oc2cc(OC3OC(CO)C(O)C(O)C3O)cc(O)c12 (stereo not drawn) [Apigenin-7-glucoside]
Key: 36.5 ng·h/mL

Exercise: Field request: AUC(0-t) | item: CC1CCC2N(C1)CC1C3CC4C(CC(=O)C5CC(O)CCC54C)C3CCC1C2(C)O (stereo not drawn)
Key: 42 ng·h/mL

Exercise: Field request: AUC(0-t) | item: O=c1cc(-c2ccc(O)c(O)c2)oc2cc(O[C@@H]3O[C@H](CO)[C@@H](O)[C@H](O)[C@H]3O)cc(O)c12 [Cynaroside]
Key: 438 ng·h/mL

Exercise: Field request: AUC(0-t) | item: `COc1cc(O)c2c(c1)oc(=O)c1c3cc(O)c(O)cc3oc21`
Key: 221 ng·h/mL

Exercise: Field request: AUC(0-t) | item: C[C@@H]1O[C@@H](O[C@@H]2[C@@H](O)[C@H](OCCc3ccc(O)c(O)c3)O[C@H](COC(=O)/C=C/c3ccc(O)c(O)c3)[C@H]2O)[C@H](O)[C@H](O)[C@H]1O [Isoacteoside]
Key: 96.4 ng·h/mL

Exercise: Field request: AUC(0-t) | item: `COc1ccc(C(C)=O)c(O)c1`
Key: 106 ng·h/mL

Exercise: Field request: AUC(0-t) | item: `COc1ccc(-c2cc(=O)c3c(OC)c(OC)c(OC)c(OC)c3o2)cc1OC`
Key: 17.9 ng·h/mL

Exercise: Field request: AUC(0-t) | item: CC1=C2CC3C(CC(=O)C4CC(O)CCC43C)C2CCC12OC1CC(C)CNC1C2C (stereo not drawn)
Key: 34.9 ng·h/mL
